Below, each entry is listed alongside its reported pIC50.
- Tested on: Poly/Mono-ADP Ribose in U2OS cells
- assay-comment: PAR in cell western assay (parylation) in U2OS cells
- Format: cell-based
- experimental-context: Homo sapiens; U2OS cells, 6 hrs, 2 mM H2O2; read-out: Parylation (U2OS)
pIC50: −log10 of the molar value.

// below: answered compounds
CC1(OC2CCN(CC(=O)N3CCN(C(=O)c4cc(Cc5n[nH]c(=O)c6ccccc56)ccc4F)CC3)CC2)CCN(C(=O)[C@H](NC(=O)c2cccc(C3CCCN(C(=O)C4(C)CC4)C3)c2F)C2CCCCC2)CC1 (stereo partly drawn) ... 6.00 to 7.00
CCc1cccc(-c2cnc(C(=O)N3CCC(CC(=O)N4CCN(C(=O)c5cc(Cc6n[nH]c(=O)c7ccccc67)ccc5F)CC4)CC3)c(NC(=O)CNCc3cccc(C)c3)c2)c1 ... 6.00 to 7.00
CCc1cccc(-c2cc(F)c(C(=O)N3CC4CCC3CC4CN3CCN(CC(=O)N4CCN(C(=O)c5cc(Cc6n[nH]c(=O)c7ccccc67)ccc5F)CC4)CC3)c(F)c2)c1 (stereo not drawn) ... 7.00 to 8.00
O=C(CN1CCN(CC2CCN(C(=O)c3c(F)cc(-c4ccccc4)cc3F)CC2)CC1)N1CCN(C(=O)c2cc(Cc3n[nH]c(=O)c4ccccc34)ccc2F)CC1 ... > 8.00
CCc1cccc(-c2cnc(C(=O)NC34CCC(CN5CCN(CC(=O)N6CCN(C(=O)c7cc(Cc8n[nH]c(=O)c9ccccc89)ccc7F)CC6)CC5)(CC3)OC4)c(NC(C)=O)c2)c1 ... 7.00 to 8.00
O=C(CN1CCC(OC2CCN(C(=O)c3c(F)cc(-c4ccncc4)cc3F)CC2)CC1)N1CCN(C(=O)c2cc(Cc3n[nH]c(=O)c4ccccc34)ccc2F)CC1 ... > 8.00

stdin: Please look up its pIC50: CC1(C(=O)N2CC(c3cccc(C(=O)N[C@@H](C(=O)N4CCC(OC5CCN(CC(=O)N6CCN(C(=O)c7cc(Cc8n[nH]c(=O)c9ccccc89)ccc7F)CC6)CC5)CC4)C4CCCCC4)c3F)CCC2(C)C)CC1 (stereo partly drawn)
stdout: 6.00 to 7.00

stdin: Likewise for CCOc1cc(OC)ccc1CNCC(=O)N1CCCC(c2cccc(C(=O)N[C@@H](C(=O)N3CCN(CC45CCC(C(=O)N6CCN(C(=O)c7cc(Cc8n[nH]c(=O)c9ccccc89)ccc7F)CC6)(CC4)CO5)CC3)C3CCCCC3)c2)C1 (stereo partly drawn) ?
stdout: 6.00 to 7.00

stdin: Likewise for CC(C)(C)C(=O)N1CCC[C@@H](c2cccc(C(=O)N[C@@H](C(=O)N3C4CCC3CC(OC3CCN(CC(=O)N5CCN(C(=O)c6cc(Cc7n[nH]c(=O)c8ccccc78)ccc6F)CC5)CC3)C4)C3CCCCC3)c2F)C1 (stereo partly drawn) ?
stdout: 7.00 to 8.00

stdin: Likewise for Cc1sc(CN2CCCC2c2nnc3n2CCCCC3)nc1C12CC(C(=O)NCCOCCOCCOCCNCC(=O)N3CCN(C(=O)c4cc(Cc5n[nH]c(=O)c6ccccc56)ccc4F)CC3)(C1)C2 (stereo not drawn) ?
stdout: 6.00 to 7.00

stdin: Likewise for "CC1(OC(=O)N[C@@H](C(=O)N2CCC(OC3CCN(CC(=O)N4CCN(C(=O)c5cc(Cc6n[nH]c(=O)c7ccccc67)ccc5F)CC4)CC3)CC2)C2CCCCC2)CCC1" ?
stdout: 7.00 to 8.00

Entry source: patent US20250127907A1
